assay: Solubilities of pHMBA and Impurities in Water; type: physicochemical; conditions: 100° C.
value_kind: Solubility at 100° C. (g/100 ml H2 O)
One number for each entry, in g/100 ml H2 O.

- mol: "Cc1ccc(C(=O)O)cc1"
  recorded_result: 0.22

# context switch: different compound, same Solubility at 100° C.
Input: So what's the measured Solubility at 100° C. for this one? `O=C(O)c1ccc(C(=O)O)cc1`
Output: 0.03

* * *

assay: Solubilities of pHMBA and Impurities in Water; format: physicochemical; conditions: 20° C.
value_kind: Solubility at 20° C.

Known Solubility at 20° C. results, listed for orientation:
- molecule: "O=C(O)c1ccc(C(=O)O)cc1 [Terephthalic Acid, terephthalic acid]"
  recorded_result: "< 0.005 g/100 ml H2 O"
- molecule: "O=C(O)c1ccc(CO)cc1 [pHMBA, p-hydroxymethylbenzoic acid]"
  recorded_result: "~ 0.5 g/100 ml H2 O"
- molecule: "O=Cc1ccc(C(=O)O)cc1 [4-CBA, 4-carboxybenzaldehyde]"
  recorded_result: "< 0.005 g/100 ml H2 O"

Note: attention shifts to another entry.
Input: Look up Solubility at 20° C.: Cc1ccc(C(=O)O)cc1 [p-Toluic Acid, p-toluic acid]
Output: 0.02 g/100 ml H2 O
